System: Staphylococcus aureus
Method summary: Antibacterial activity against Staphylococcus aureus ATCC 6538 assessed as growth inhibition at 1000 ug/mL after 24 hrs by disk diffusion assay
Format: functional
Condition set: ATCC 6538, 24 h, read-out: DIZ
Property: zone of inhibition at 1000 µg/mL (mm)
Field format: number, assumed mm, no unit text.

Query block: Field request: zone of inhibition at 1000 µg/mL | item: `Cc1cccc(Nc2ccc(Nc3c(Cl)c(F)c(C#N)c(F)c3C#N)c3nc[nH]c(=O)c23)c1`
Result block: 9.8

Query block: Repeat with `Cc1cc(C)cc(Nc2ccc(Nc3c(Cl)c(Cl)c(C#N)c(Cl)c3C#N)c3nc[nH]c(=O)c23)c1`
Result block: 10

Query block: Repeat with `Nc1ccc(Nc2cccc(Cl)c2)c2c(=O)[nH]cnc12`
Result block: 6.5

The reported measurements were obtained from ChEMBL document CHEMBL2434951.
